Please go through the items and note down their Km.
tested on: SULT1C1; experiment: SULT1C1 enzyme activity assay: sulfate conjugation of 4-nitrophenol with 35S-PAPS, COS-1 cytosol of recombinant allozymes; format: biochemical, human; settings: apparent Km for PAPS, in the presence of 10 mM 4-NP, six PAPS concentrations 0.0625 μM to 2 μM
Could you kindly put the unit after your number?

- MOLECULE: "Asp200Val: SULT1C1 polypeptide having a valine at amino acid 200 in place of an aspartic acid (protein) MALTSDLGKQIKLKEVEGTLLQPATVDNWSQIQSFEAKPDDLLICTYPKAGTTWIQEIVDMIEQNGDVEKCQRAIIQHRHPFIEWARPPQPSGVEKAKAMPSPRILKTHLSTQLLPPSFWENNCKFLYVARNAKDCMVSYYHFQRMNHMLPDPGTWEEYFETFINGKVVWGSWFDHVKGWWEMKDRHQILFLFYEDIKRVPKHEIRKVMQFMGKKVDETVLDKIVQETSFEKMKENPMTNRSTVSKSILDQSISSFMRKGTVGDWKNHFTVAQNERFDEIYRRKMEGTSINFCMEL"
  Km: "1.2 µM"

Now consider the entry below.
Recall and state the measured Km for Asp60Ala: SULT1C1 polypeptide having an alanine at amino acid residue 60 in place of aspartic acid (protein) MALTSDLGKQIKLKEVEGTLLQPATVDNWSQIQSFEAKPDDLLICTYPKAGTTWIQEIVAMIEQNGDVEKCQRAIIQHRHPFIEWARPPQPSGVEKAKAMPSPRILKTHLSTQLLPPSFWENNCKFLYVARNAKDCMVSYYHFQRMNHMLPDPGTWEEYFETFINGKVVWGSWFDHVKGWWEMKDRHQILFLFYEDIKRDPKHEIRKVMQFMGKKVDETVLDKIVQETSFEKMKENPMTNRSTVSKSILDQSISSFMRKGTVGDWKNHFTVAQNERFDEIYRRKMEGTSINFCMEL .
4 µM
